Molecular target: aromatase (Homo sapiens)
Construct: JEG-3 which constitutively expresses high amount of aromatase and steroid sulfatase; endogenous in cells
Sequence (P11511 1-503): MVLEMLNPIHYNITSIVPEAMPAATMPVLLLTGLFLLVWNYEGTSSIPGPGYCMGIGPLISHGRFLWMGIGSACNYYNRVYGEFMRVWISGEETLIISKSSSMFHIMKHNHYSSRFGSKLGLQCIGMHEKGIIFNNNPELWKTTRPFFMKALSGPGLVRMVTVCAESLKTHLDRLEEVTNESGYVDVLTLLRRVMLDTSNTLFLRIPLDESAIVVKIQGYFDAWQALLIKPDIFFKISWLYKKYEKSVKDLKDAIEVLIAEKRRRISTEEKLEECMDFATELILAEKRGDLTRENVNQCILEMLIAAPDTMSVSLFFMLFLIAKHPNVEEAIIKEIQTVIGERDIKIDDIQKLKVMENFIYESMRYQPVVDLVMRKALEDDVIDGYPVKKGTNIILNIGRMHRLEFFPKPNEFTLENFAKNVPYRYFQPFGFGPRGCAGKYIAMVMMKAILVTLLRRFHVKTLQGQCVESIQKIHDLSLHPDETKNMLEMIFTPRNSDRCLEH
Assay: Aromatase inhibition assay in JEG-3 cells ([1β-3H] androstenedione, tritiated water release)
Conditions: 1.25 hour incubation, duplicate
pIC50: −log10 of the molar value.
metric: pIC50

As a guide, the following entries are already answered.
[
  {
    "test-smiles": "N#Cc1ccc(Nn2cnc3ccccc32)nc1-c1ccc(OS(N)(=O)=O)cc1",
    "experimental-system": "aromatase (Homo sapiens)",
    "data-value": 8.43
  },
  {
    "test-smiles": "N#Cc1ncc(Nn2cnc3ccccc32)nc1-c1ccc(OS(N)(=O)=O)cc1",
    "experimental-system": "aromatase (Homo sapiens)",
    "data-value": 7.42
  },
  {
    "test-smiles": "N#Cc1ccc(Cn2nnc3cccnc32)cc1-c1ccc(OS(N)(=O)=O)cc1",
    "experimental-system": "aromatase (Homo sapiens)",
    "data-value": 8.20
  },
  {
    "test-smiles": "N#Cc1ncc(Nn2cnc3ccccc32)cc1-c1ccc(OS(N)(=O)=O)cc1",
    "experimental-system": "aromatase (Homo sapiens)",
    "data-value": 8.57
  },
  {
    "test-smiles": "CSc1ccc(-c2cc(N(C)n3cnc4ccccc43)ccc2C#N)cc1OS(N)(=O)=O",
    "experimental-system": "aromatase (Homo sapiens)",
    "data-value": 8.24
  },
  {
    "test-smiles": "N#Cc1ccc(Cn2cnc3ccccc32)cc1-c1ccc(OS(N)(=O)=O)cn1",
    "experimental-system": "aromatase (Homo sapiens)",
    "data-value": 8.23
  },
  {
    "test-smiles": "CN(c1cnc(C#N)c(-c2ccc(OS(N)(=O)=O)cc2)n1)n1cnc2ccccc21",
    "experimental-system": "aromatase (Homo sapiens)",
    "data-value": 8.08
  },
  {
    "test-smiles": "N#Cc1cnc(Cn2cnc3cccnc32)nc1-c1ccc(OS(N)(=O)=O)cc1",
    "experimental-system": "aromatase (Homo sapiens)",
    "data-value": 8.21
  }
]

I: CSc1ccc(-c2cc(Nn3cnc4ccccc43)ccc2C#N)cc1OS(N)(=O)=O
II: N#Cc1ccc(Cn2nnc3ccccc32)cc1-c1ccc(OS(N)(=O)=O)cc1
stdin: # returns the entry with the larger pIC50; inputs I and II Give the label of your selection.
stdout: I
(I: 8.66, II: 8.32)

Taken from patent US9682941B2.
